Source: PubChem BioAssay AID1159580

- method.summary: chemical genetic growth profiling, strain panel (AID 1159580);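 also: tested at 20 µM; growth read once vehicle control cultures reached saturation at 30 °C; 1 = growth at the plate median or of vehicle wells; lower values mean less growth of the strain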
- study.conditions: S. cerevisiae deletion strains, growth OD, locus YPR106W, strain ISR1
The campaign covered roughly 5,500 compounds. About 2,000 (36%) were called active. Another 18% or so got no clear call; they are omitted. Rule as the data show it: active = normalized growth mostly below about 0.91 (no sharp cut-off); inconclusive = no clear call, values can overlap the other calls; inactive = mostly above about 0.92. The list shows a part of the results.
Labels: 1 (active), 0 (inactive)

smiles.structure	assigned.class
Cc1c(Cl)cccc1NC(=S)N1CCCN(c2ccc(C(F)(F)F)cc2[N+](=O)[O-])CC1	0
Cc1c(Cl)cccc1NC(=S)N1CCCN(c2nc3ccc(Cl)cc3s2)CC1	0
CC(C)(C)C1=NN(c2nc3ccc(Cl)cc3s2)C(=O)C1	1
